Data credit: paper PMC8570587

molecular target: recombinant human MAO-B (Homo sapiens, UniProt P27338); assay: MAO-B enzyme inhibition assay
Sequence (P27338 whole entry): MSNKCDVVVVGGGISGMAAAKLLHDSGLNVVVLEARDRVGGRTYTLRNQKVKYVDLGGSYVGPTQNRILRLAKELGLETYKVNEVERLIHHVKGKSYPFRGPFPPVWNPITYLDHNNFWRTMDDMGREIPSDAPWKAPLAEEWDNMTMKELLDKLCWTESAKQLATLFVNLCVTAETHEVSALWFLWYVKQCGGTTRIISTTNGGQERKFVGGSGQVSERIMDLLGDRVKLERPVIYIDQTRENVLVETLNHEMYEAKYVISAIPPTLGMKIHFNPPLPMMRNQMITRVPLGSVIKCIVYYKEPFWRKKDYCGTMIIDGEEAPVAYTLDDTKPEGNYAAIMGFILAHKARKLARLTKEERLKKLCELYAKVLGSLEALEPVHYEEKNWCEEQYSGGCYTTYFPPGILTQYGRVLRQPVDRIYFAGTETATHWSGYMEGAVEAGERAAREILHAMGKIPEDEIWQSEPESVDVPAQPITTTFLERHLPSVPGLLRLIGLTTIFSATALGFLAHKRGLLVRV
readoutKind: IC50
Write the numeric value and follow it with the unit.

(Q) Answer with the recorded IC50 of NS(=O)(=O)Cc1noc2ccccc12 [Zonisamide] only.
(A) 22.6 µM

###

assay: ORAC antioxidant assay; assay type: physicochemical; conditions: read-out: ORAC antioxidant EC50; positive control
readoutKind: pEC50
FYI, pEC50 means -log10 of a concentration in mol per litre.

(Q) Answer with the recorded pEC50 of O=C1O[C@H]([C@@H](O)CO)C(O)=C1O [Vitamin C] only.
(A) 4.59
